tested on: P-4E-BP1 (T37/46); assay: Cell based AlphaLISA assay, inhibition of P-4E-BP1 (T37/46) in MDA-MB-468 cells; settings: Homo sapiens, 4 h, 0.017-1,000 nM, two to four hours at 37° C., AlphaLisa SureFire Ultra, read-out: pIC50 for Inhibition of mTORC1 and mTORC2 Substrate Phosphorylation, p-4E-BP1-(T37/46) (converted)

[
  {
    "mol_smiles": "CO[C@H]1C[C@@H]2CC[C@@H](C)[C@@](O)(O2)C(=O)C(=O)N2CCCC[C@H]2C(=O)O[C@H]([C@H](C)C[C@@H]2CC[C@@H](O)[C@H](OC)C2)C[C@@H](O)[C@H](C)/C=C(\\C)[C@@H](O)[C@@H](OC)C(=NOCC(=O)NCCOCCOCCOCCOCCOCCOCCOCCOCCC(=O)NCCCCn2nc(-c3cnc4[nH]ccc4c3)c3c(N)ncnc32)[C@H](C)C[C@H](C)/C=C/C=C/C=C/1C",
    "experimental_system": "P-4E-BP1 (T37/46)",
    "IC50": "3.16 to 31.6 nM"
  },
  {
    "mol_smiles": "CO[C@H]1C[C@@H]2CC[C@@H](C)[C@@](O)(O2)C(=O)C(=O)N2CCCC[C@H]2C(=O)O[C@H]([C@H](C)C[C@@H]2CC[C@@H](O)[C@H](OC)C2)C[C@@H](O)[C@H](C)/C=C(\\C)[C@@H](O)[C@@H](OC)C(=NOCC(=O)NCc2cnc(N3CCN(c4ncc(C(=O)NCCOCCOCCOCCC(=O)NCCCCn5nc(-c6ccc7oc(N)nc7c6)c6c(N)ncnc65)cn4)CC3)nc2)[C@H](C)C[C@H](C)/C=C/C=C/C=C/1C",
    "experimental_system": "P-4E-BP1 (T37/46)",
    "IC50": "3.16 to 31.6 nM"
  },
  {
    "mol_smiles": "CO[C@H]1C[C@@H]2CC[C@@H](C)[C@@](O)(O2)C(=O)C(=O)N2CCCC[C@H]2C(=O)O[C@H]([C@H](C)C[C@@H]2CC[C@@H](O)[C@H](OC)C2)C[C@@H](O)[C@H](C)/C=C(\\C)[C@@H](O)[C@@H](OC)C(=NOCC(=O)NCCOCCOCCOCCOCCOCCOCCC(=O)NC2CCN(CC(=O)N3CCc4cc(Cn5nc(-c6ccc7oc(N)nc7c6)c6c(N)ncnc65)ccc4C3)CC2)[C@H](C)C[C@H](C)/C=C/C=C/C=C/1C",
    "experimental_system": "P-4E-BP1 (T37/46)",
    "IC50": "3.16 to 31.6 nM"
  },
  {
    "mol_smiles": "CO[C@H]1C[C@@H]2CC[C@@H](C)[C@@](O)(O2)C(=O)C(=O)N2CCCC[C@H]2C(=O)O[C@H]([C@H](C)C[C@@H]2CC[C@@H](O)[C@H](OC)C2)C[C@@H](O)[C@H](C)/C=C(\\C)[C@@H](O)[C@@H](OC)C(=NOCC(=O)NCc2cnc(N3CCN(CCOCCN4CCN(c5ncc(C(=O)N6CCc7cc(Cn8nc(-c9ccc%10oc(N)nc%10c9)c9c(N)ncnc98)ccc7C6)cn5)CC4)CC3)nc2)[C@H](C)C[C@H](C)/C=C/C=C/C=C/1C",
    "experimental_system": "P-4E-BP1 (T37/46)",
    "IC50": "3.16 to 31.6 nM"
  },
  {
    "mol_smiles": "COc1ccc(-c2ccc3ncc4c(c3c2)n(-c2ccc(N3CCN(C(=O)CCOCCOCCOCCOCCOCCOCCNC(=O)CON=C5[C@H](C)C[C@H](C)/C=C/C=C/C=C(\\C)[C@@H](OC)C[C@@H]6CC[C@@H](C)[C@@](O)(O6)C(=O)C(=O)N6CCCC[C@H]6C(=O)O[C@H]([C@H](C)C[C@@H]6CC[C@@H](O)[C@H](OC)C6)C[C@@H](O)[C@H](C)/C=C(\\C)[C@@H](O)[C@H]5OC)CC3)c(C(F)(F)F)c2)c(=O)n4C)cn1",
    "experimental_system": "P-4E-BP1 (T37/46)",
    "IC50": "< 3.16 nM"
  },
  {
    "mol_smiles": "CO[C@H]1C[C@@H]2CC[C@@H](C)[C@@](O)(O2)C(=O)C(=O)N2CCCC[C@H]2C(=O)O[C@H]([C@H](C)C[C@@H]2CC[C@@H](O)[C@H](OC)C2)C[C@@H](O)[C@H](C)/C=C(\\C)[C@@H](O)[C@@H](OC)C(=NOCC(=O)NCCOCCC(=O)NCc2cnc(N3CCN(C(=O)CCOCCN4CCN(c5ncc(C(=O)NCCCCn6nc(-c7cnc8[nH]ccc8c7)c7c(N)ncnc76)cn5)CC4)CC3)nc2)[C@H](C)C[C@H](C)/C=C/C=C/C=C/1C",
    "experimental_system": "P-4E-BP1 (T37/46)",
    "IC50": "3.16 to 31.6 nM"
  },
  {
    "mol_smiles": "CO[C@H]1C[C@@H]2CC[C@@H](C)[C@@](O)(O2)C(=O)C(=O)N2CCCC[C@H]2C(=O)O[C@H]([C@H](C)C[C@@H]2CC[C@@H](O)[C@H](OC)C2)CC[C@H](C)/C=C(\\C)[C@@H](O)[C@@H](OC)C(=NOCC(=O)NCCOCCOCCOCCOCCOCCOCCOCCOCCC(=O)N2CCc3cc(Cn4nc(-c5ccc6oc(N)nc6c5)c5c(N)ncnc54)ccc3C2)[C@H](C)C[C@H](C)/C=C/C=C/C=C/1C",
    "experimental_system": "P-4E-BP1 (T37/46)",
    "IC50": "< 3.16 nM"
  },
  {
    "mol_smiles": "CO[C@H]1C[C@@H]2CC[C@@H](C)[C@@](O)(O2)C(=O)C(=O)N2CCCC[C@H]2C(=O)O[C@H]([C@H](C)C[C@@H]2CC[C@@H](O)[C@H](OC)C2)C[C@@H](O)[C@H](C)/C=C(\\C)[C@@H](O)[C@@H](OC)C(=NOCC(=O)NCCOCCC(=O)NCc2cnc(N3CCN(C(=O)CCOCCN4CCN(c5ncc(C(=O)NCCCCn6nc(-c7ccc8oc(N)nc8c7)c7c(N)ncnc76)cn5)CC4)CC3)nc2)[C@H](C)C[C@H](C)/C=C/C=C/C=C/1C",
    "experimental_system": "P-4E-BP1 (T37/46)",
    "IC50": "3.16 to 31.6 nM"
  },
  {
    "mol_smiles": "CO[C@H]1C[C@@H]2CC[C@@H](C)[C@@](O)(O2)C(=O)C(=O)N2CCCC[C@H]2C(=O)O[C@H]([C@H](C)C[C@@H]2CC[C@@H](O)[C@H](OC)C2)C[C@@H](O)[C@H](C)/C=C(\\C)[C@@H](O)[C@@H](OC)C(=NOCC(=O)NCc2cnc(N3CCC(N4CCC(C(=O)NCCOCCC(=O)N5CCc6cc(Cn7nc(-c8ccc9oc(N)nc9c8)c8c(N)ncnc87)ccc6C5)CC4)CC3)nc2)[C@H](C)C[C@H](C)/C=C/C=C/C=C/1C",
    "experimental_system": "P-4E-BP1 (T37/46)",
    "IC50": "3.16 to 31.6 nM"
  }
]

Reference source: patent US12187746B2
